- experimental system: Cytochrome P450 1A2 (Homo sapiens)
- experimental details: Cytochrome P450 Family 1 Subfamily A Member 2 (CYP1A2) small molecule antagonists: luciferase reporter qHTS assay (AID 1671199); further: nearly all actives have a fitted effect of over 50% in size
- run conditions: P450-Glo CYP1A2 enzyme, luciferin luminescence, 1 h; series mostly up to 115 µM
Inconclusive results are not listed. Active and inactive are the calls of the source. The call rests on the fitted dose curve; in most records, active means well fitted inhibition curve with a large enough effect in the repeat runs; inconclusive means weak or mixed curves; inactive means no such curve, though single readings can be large or run the other way.
Write down the outcome that applies. Available outcomes: true = active, false = inactive

Recorded results for 6 compounds are shown here.
{"compound": "OCC(CO)n1cnc(-c2ccc(F)cc2)c1-c1ccnc(Oc2ccccc2)n1", "category": "false"}
{"compound": "Nc1nc(-c2ccc([N+](=O)[O-])cc2)cs1", "category": "true"}
{"compound": "Nc1ccc(NC(=O)c2ccc(N)cc2)cc1", "category": "false"}
{"compound": "O=CNNC=O", "category": "false"}
{"compound": "Cc1ccc(N(CC2=NCCN2)c2cccc(O)c2)cc1", "category": "false"}
{"compound": "CC(=O)OCC(C)C", "category": "false"}

Could you kindly confirm the outcome this assay logged for FC(F)(F)C(F)(F)C(F)(F)C(F)(F)CCI ?
false

Could you kindly confirm the outcome this assay logged for Cc1cccc2sc(N)nc12 ?
true

Could you kindly confirm the outcome this assay logged for O=C(c1ccccc1)C1CCC1 ?
false

Could you kindly confirm the outcome this assay logged for CCCCOC(=O)CCCCC(=O)OCCCC ?
true

Could you kindly confirm the outcome this assay logged for COc1ccc(-c2cc(=S)ss2)cc1 ?
true

Could you kindly confirm the outcome this assay logged for Cc1ccc2nc(N)[nH]c(=O)c2c1Sc1ccncc1 ?
true

Could you kindly confirm the outcome this assay logged for Cc1ccc(S(=O)(=O)NC(=O)NC2CCCCC2)cc1 ?
false

Could you kindly confirm the outcome this assay logged for CC[C@@H](CO)NCCN[C@@H](CC)CO ?
false

Could you kindly confirm the outcome this assay logged for O=c1[nH]c2cc(C(F)(F)F)c(N3CCOCC3)cc2n(CP(=O)(O)O)c1=O ?
false

Could you kindly confirm the outcome this assay logged for O=C(NS(=O)(=O)/C=C/c1ccccc1)c1ccc(F)cc1Cl ?
false

Could you kindly confirm the outcome this assay logged for CC1CCC(C(C)CS)CC1S (configuration not stated) ?
false
